// values below are IC50; system is human CYP2D6 (Homo sapiens, UniProt P10635)
Sequence (P10635 whole entry): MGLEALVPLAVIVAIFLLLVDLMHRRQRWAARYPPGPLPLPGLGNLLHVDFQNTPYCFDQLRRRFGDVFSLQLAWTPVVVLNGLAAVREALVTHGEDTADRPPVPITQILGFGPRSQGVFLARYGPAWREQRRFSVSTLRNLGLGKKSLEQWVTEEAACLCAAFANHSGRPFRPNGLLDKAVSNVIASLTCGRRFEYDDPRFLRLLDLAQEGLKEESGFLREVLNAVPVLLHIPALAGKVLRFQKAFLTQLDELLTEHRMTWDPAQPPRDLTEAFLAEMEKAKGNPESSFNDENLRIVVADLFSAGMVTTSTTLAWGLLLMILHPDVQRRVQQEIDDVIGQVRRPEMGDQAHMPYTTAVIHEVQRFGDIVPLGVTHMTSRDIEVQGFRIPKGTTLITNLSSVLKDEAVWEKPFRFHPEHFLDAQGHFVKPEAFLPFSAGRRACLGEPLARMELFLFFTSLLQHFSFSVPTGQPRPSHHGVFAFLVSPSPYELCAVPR

Respectfully, I request IC50 for each entry included below.
1. N/C(=N\C(=O)OCc1ccccc1)c1ccc(OCCCN2CCN(CCCOc3ccc(/C(N)=N/C(=O)OCc4ccccc4)cc3)CC2)cc1 [Comparative Compound 1, reference compound]
2. CCCCOC(=O)N=C(N)c1ccc(OCCCC2CCN(CCCOc3ccc(C(N)=NC(=O)OCCCC)cc3)CC2)cc1

["0.68 µM", "> 72 µM"]
